Target: human OX2R (Homo sapiens, UniProt O43614)
Construct: expressed in transfected cells; host or cells: CHO (Chinese hamster ovary) cells, line CHOOX2R, co-expressing NFAT-luciferase
Sequence (O43614 1-444): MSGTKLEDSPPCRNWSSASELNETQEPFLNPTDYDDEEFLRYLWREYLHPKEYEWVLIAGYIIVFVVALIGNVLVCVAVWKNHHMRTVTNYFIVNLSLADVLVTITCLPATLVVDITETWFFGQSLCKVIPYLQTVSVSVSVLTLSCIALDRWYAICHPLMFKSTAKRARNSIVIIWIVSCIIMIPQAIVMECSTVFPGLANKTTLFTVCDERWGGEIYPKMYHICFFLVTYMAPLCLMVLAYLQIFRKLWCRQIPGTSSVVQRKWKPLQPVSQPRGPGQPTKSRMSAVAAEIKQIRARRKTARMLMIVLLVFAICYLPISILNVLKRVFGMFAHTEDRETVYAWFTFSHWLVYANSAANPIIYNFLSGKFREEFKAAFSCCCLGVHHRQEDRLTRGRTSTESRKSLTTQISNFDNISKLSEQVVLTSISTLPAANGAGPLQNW
Assay: Agonist activity against OX2R: intracellular calcium (Fura-2AM, FDSS7000) in CHOOX2R cells
Assay type: cell-based
Conditions: 0.1 μM test compound; relative to orexin-A as full agonist (100%)
recorded_metric: Response (%) OX2R
Response body: numeric value in %, unit text excluded.

Below: 2 molecules and their reported Response (%) OX2R.
| molecule | tested_on | result_units | Response (%) OX2R |
| --- | --- | --- | --- |
| COc1ccc(-c2cccc(C(=O)N(C)C)c2)cc1S(=O)(=O)Nc1cccc(NC(=S)Nc2cccc(C)c2)c1 [Example 76] | human OX2R (Homo sapiens, UniProt O43614) | % | 93 |
| COc1ccc(CNc2cccc(NS(=O)(=O)c3cc(-c4cccc(C(=O)N(C)C)c4)ccc3OC)c2)cc1 [Example 22] | human OX2R (Homo sapiens, UniProt O43614) | % | 57 |

Form field Response (%) OX2R, entry COc1ccc(-c2cccc(C(=O)N(C)C)c2)cc1S(=O)(=O)Nc1cccc(NCc2cccc(C)c2)c1 [Example 25] : 21

Form field Response (%) OX2R, entry COc1ccc(-c2cccc(C(=O)N(C)C)c2)cc1S(=O)(=O)Nc1cccc(NC(=O)c2ccccc2N(C)C)c1 [Example 6] : 9
